Form: system (UniProt:P35367), quantity (AC50), values below.
Sequence (P35367 whole entry): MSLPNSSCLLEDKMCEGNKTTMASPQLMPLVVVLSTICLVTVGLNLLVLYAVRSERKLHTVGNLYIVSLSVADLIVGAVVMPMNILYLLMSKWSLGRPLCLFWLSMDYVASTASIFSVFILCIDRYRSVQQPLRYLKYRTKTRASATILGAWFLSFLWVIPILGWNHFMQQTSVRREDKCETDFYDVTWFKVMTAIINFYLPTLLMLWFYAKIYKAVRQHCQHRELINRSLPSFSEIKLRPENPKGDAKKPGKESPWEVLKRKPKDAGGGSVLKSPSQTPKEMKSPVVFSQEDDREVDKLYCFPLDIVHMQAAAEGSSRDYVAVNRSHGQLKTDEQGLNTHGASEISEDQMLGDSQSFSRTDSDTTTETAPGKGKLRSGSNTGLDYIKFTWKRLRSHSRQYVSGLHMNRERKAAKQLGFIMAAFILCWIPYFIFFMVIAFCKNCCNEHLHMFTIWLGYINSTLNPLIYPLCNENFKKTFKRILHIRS
parameter_measured: AC50

>>> result("Cn1c(=O)cc(N2CCC[C@@H](N)C2)n(Cc2ccccc2C#N)c1=O")
"> 10 µM"
>>> result("OC1(c2ccc(Cl)cc2)c2ccccc2C2=NCCN21 (centres undefined)")
"7.5 µM"
>>> result("COc1cc2nccc(Oc3ccc(NC(=O)C4(C(=O)Nc5ccc(F)cc5)CC4)cc3)c2cc1OC [CABOZANTINIB]")
"> 30 µM"
>>> result("OC[C@H]1O[C@@](CO)(O[C@H]2O[C@H](CO)[C@@H](O)[C@H](O)[C@H]2O)[C@@H](O)[C@@H]1O")
"> 30 µM"
>>> result("Cc1cc(C(C)(C)C)cc(C)c1CC1=NCCN1")
"> 30 µM"
>>> result("COc1ccc(CC2c3cc(OC)c(OC)cc3CC[N+]2(C)CCC(=O)OCCCCCOC(=O)CC[N+]2(C)CCc3cc(OC)c(OC)cc3C2Cc2ccc(OC)c(OC)c2)cc1OC (centres undefined)")
"> 30 µM"
>>> result("C#C[C@]1(O)CC[C@H]2[C@@H]3CCC4=CC(=O)CC[C@@H]4[C@H]3C(=C)C[C@@]21CC")
"> 30 µM"
>>> result("COc1cc2ncnc(Nc3ccc(F)c(Cl)c3)c2cc1NC(=O)/C=C/CN1CCCCC1 [DACOMITINIB ANHYDROUS]")
"> 30 µM"
>>> result("O=C1CN=C(c2ccccn2)c2cc(Br)ccc2N1")
"> 10 µM"
>>> result("Cn1cnc2c(F)c(Nc3ccc(Br)cc3Cl)c(C(=O)NOCCO)cc21")
"> 10 µM"
>>> result("CCCCCC(=O)O[C@]1(C(C)=O)CC[C@H]2[C@@H]3CCC4=CC(=O)CC[C@]4(C)[C@H]3CC[C@@]21C [HYDROXYPROGESTERONE CAPROATE]")
"> 30 µM"
>>> result("COc1cc(N)c(Cl)cc1C(=O)NC1CCN(Cc2ccccc2)CC1 [CLEBOPRIDE]")
"> 30 µM"
>>> result("COc1ccc2nc3cc(Cl)ccc3c(Nc3cc(CN4CCCC4)c(O)c(CN4CCCC4)c3)c2n1")
"21 µM"
>>> result("C[N@+]1(CCF)[C@@H]2CC[C@H]1C[C@@H](OC(=O)C(O)(c1ccccc1)c1ccccc1)C2")
"15 µM"
